TARGET_OR_SYSTEM: UniProtKB P24530
Sequence (P24530 27-442): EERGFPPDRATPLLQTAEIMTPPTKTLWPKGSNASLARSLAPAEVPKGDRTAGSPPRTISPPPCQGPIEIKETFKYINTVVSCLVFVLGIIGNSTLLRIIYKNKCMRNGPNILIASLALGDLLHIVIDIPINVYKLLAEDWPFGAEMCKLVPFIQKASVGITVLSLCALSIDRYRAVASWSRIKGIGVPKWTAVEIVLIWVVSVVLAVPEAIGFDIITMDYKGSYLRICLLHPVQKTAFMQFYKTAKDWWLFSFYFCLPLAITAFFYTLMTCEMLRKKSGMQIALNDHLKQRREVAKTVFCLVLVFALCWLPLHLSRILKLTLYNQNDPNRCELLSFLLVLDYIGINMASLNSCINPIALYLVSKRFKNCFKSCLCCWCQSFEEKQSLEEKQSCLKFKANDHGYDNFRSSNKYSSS
Field: Ki. Provide a value for each of the compounds that follow.
Numbers only, in nM.

• COC(c1ccccc1)(c1ccccc1)[C@H](Oc1nc(C)c(C)o1)C(=O)O [Compound I-4] = 3100

-- ask # query: Ki of entry COC(c1ccccc1)(c1ccccc1)[C@H](Oc1nc(C)c(C)s1)C(=O)O [Compound I-1]
-- reply 650
